biological target: human ether-à-go-go-related gene (hERG) potassium channel (human, UniProt Q12809); assay: primary screen, population patch clamp on CHO cells stably expressing hERG; higher = less effect of the substance
Sequence (Q12809 whole entry, looked up): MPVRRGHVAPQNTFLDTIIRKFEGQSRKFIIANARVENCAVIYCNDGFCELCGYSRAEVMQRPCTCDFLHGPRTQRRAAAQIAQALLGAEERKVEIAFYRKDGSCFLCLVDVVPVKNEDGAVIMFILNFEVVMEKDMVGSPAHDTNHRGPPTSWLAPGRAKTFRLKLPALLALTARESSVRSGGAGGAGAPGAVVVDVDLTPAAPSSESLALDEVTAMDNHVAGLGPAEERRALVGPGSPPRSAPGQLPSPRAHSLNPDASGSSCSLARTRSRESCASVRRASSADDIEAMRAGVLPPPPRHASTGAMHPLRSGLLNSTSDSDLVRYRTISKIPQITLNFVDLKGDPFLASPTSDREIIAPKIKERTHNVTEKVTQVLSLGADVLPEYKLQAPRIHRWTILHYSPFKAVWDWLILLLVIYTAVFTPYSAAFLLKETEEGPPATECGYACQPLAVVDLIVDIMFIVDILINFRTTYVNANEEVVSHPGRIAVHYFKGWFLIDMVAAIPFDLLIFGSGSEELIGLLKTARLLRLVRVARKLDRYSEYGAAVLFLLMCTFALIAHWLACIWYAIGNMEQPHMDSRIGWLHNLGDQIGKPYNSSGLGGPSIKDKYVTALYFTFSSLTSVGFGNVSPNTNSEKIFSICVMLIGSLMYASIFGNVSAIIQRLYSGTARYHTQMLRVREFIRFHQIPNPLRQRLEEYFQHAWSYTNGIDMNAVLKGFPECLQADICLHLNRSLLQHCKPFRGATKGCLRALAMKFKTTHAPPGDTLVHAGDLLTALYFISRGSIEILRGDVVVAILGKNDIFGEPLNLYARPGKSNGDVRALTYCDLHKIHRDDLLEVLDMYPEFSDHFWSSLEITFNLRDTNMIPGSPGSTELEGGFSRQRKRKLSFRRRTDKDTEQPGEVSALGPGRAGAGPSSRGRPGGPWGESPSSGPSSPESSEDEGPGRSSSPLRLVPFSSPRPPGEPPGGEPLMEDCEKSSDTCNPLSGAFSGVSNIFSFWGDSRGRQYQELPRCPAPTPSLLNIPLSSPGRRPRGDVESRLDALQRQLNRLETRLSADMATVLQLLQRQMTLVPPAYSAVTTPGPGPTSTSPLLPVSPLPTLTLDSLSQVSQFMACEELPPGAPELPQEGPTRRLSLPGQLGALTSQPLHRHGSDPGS
In all, about 310,000 compounds went through this assay and about 14,000 (4.5%) showed an effect of 50% or more. The effect is printed as a negative number. What follows is part of a selection rich in strong results, with near analogues and random picks from the rest.
Reported hERG current change (%, negative = inhibition) at 10uM values are given for each entry in this list.
All answers are understood in %, so give the number only.

Worked examples follow.
- Compound: "COC(=O)c1sccc1NC(=O)c1c(F)c(F)c(F)c(F)c1F"
  Test result: 27
- Compound: "CN1CCN(C(=O)c2c(O)c3cccc4c3n(c2=O)CCC4)CC1.Cl"
  Test result: 6.48
- Compound: "COCCNC(=O)/C(C#N)=C/c1ccc(O)cc1"
  Test result: 10.6

Value of hERG current change (%, negative = inhibition) at 10uM reported for the compound `O=C(CSc1ccccn1)Nc1ccc2c(c1)OCCO2` is 8.07

Value of hERG current change (%, negative = inhibition) at 10uM reported for the compound `COc1ccc(CC(=O)N2CCc3ccccc3C2)cc1` is 3.67

Value of hERG current change (%, negative = inhibition) at 10uM reported for the compound `COc1ccc(CC2(CO)CCN(S(=O)(=O)c3c(C)nn(C)c3Cl)CC2)cc1` is 14.7

Value of hERG current change (%, negative = inhibition) at 10uM reported for the compound `CCn1cc(CCC(=O)NCc2cccc(OC)c2OC)c2ccccc21` is 8.51

Value of hERG current change (%, negative = inhibition) at 10uM reported for the compound `CCCn1c(/N=C/c2ccccc2O)nc2ccccc21` is 13.6

----------
Reported hERG current change (%, negative = inhibition) at 10uM values are given for each entry in this list.
Molecular target: human ether-à-go-go-related gene (hERG) potassium channel (human);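 further: peak tail current of the secondary pulse compared with the same well before compound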
Assay: primary screen, population patch clamp on CHO cells stably expressing hERG; higher = less effect of the substance
Procedure: Briefly, Chinese hamster ovary (CHO) cells stably expressing the hERG channel were dislodged from tissue culture flasks and dispensed into PPC plates. […] During the recording, background leak currents were estimated by a 100 ms step to -80 mV from an initial holding potential of -70 mV and subtracted from the subsequent current measurement. The campaign was conducted in two phases using slight differences in recording protocol. […]
About 14,000 (4.5%) of roughly 310,000 compounds showed an effect of 50% or more. The effect is printed as a negative number. Shown is part of a subset that was picked to be rich in strong results.
All answers are understood in %, so give the number only.

Worked examples follow.
- Molecule: "CC(C)(C)NC(=S)NNC(=O)c1ccncc1"
  Test result: 15.4
- Molecule: "CCN1CCN(CCC(=O)Nc2ccc(Br)c(C)c2)CC1.Cl"
  Test result: -30.8
- Molecule: "O=C(CCNC(=O)c1ccco1)Nc1ccc(SC(F)F)cc1"
  Test result: -52.7

Value of hERG current change (%, negative = inhibition) at 10uM reported for the molecule CC(OC(=O)c1cccs1)C(=O)NCc1ccc2c(c1)OCO2 (stereo not drawn) is 15.4

Value of hERG current change (%, negative = inhibition) at 10uM reported for the molecule `Cc1c(C(=O)NCCSCc2cccc(C(F)(F)F)c2)cnn1-c1ccc(F)cc1` is -64.6

Value of hERG current change (%, negative = inhibition) at 10uM reported for the molecule `CCN(CC)S(=O)(=O)c1ccc(C(=O)NCc2nnc(SCC(=O)OC)n2C)cc1` is -1.87

Value of hERG current change (%, negative = inhibition) at 10uM reported for the molecule `Cc1c(C(=O)NCCSCc2cccc(C(F)(F)F)c2)cnn1-c1ccc(Cl)cc1` is -30.6

Value of hERG current change (%, negative = inhibition) at 10uM reported for the molecule `Cc1ccc(CNC(=O)/C=C/c2ccc(Br)o2)cc1` is -26.2

Value of hERG current change (%, negative = inhibition) at 10uM reported for the molecule `CCCNC(=O)c1ccc(N2CCC3(CC2)CC(c2cccc(Br)c2)=NO3)c(NC(=O)c2c(Cl)cccc2Cl)c1` is 5.92

Value of hERG current change (%, negative = inhibition) at 10uM reported for the molecule `CN1CCc2c(sc3nc(NN)n(-c4ccc(Cl)cc4)c(=O)c23)C1` is 14.6

Value of hERG current change (%, negative = inhibition) at 10uM reported for the molecule `O=C(CCNC(=O)c1ccco1)Nc1ccc(OC(F)F)cc1` is -23.8

Value of hERG current change (%, negative = inhibition) at 10uM reported for the molecule `O=C1CCNc2c(Cl)cc(Cl)cc21` is -2.74

----------
biological target: human ether-à-go-go-related gene (hERG) potassium channel (human); assay: primary screen, population patch clamp on CHO cells stably expressing hERG; higher = less effect of the substance;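 further: peak tail current of the secondary pulse compared with the same well before compound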
Out of some 310,000 compounds screened, about 14,000 (4.5%) showed an effect of 50% or more. Effects have a minus sign here. The full list was thinned out, with strong results kept by preference.
Classify by measured hERG current change (%, negative = inhibition) at 10uM: yes if it is equal to or exceeds -10%, no if it is smaller.

Completed entries (count: 3):
- Compound: "Fc1cccc(F)c1/C=N/NC(=S)Nc1cccnc1"
  Assigned class: "no"
- Compound: "COc1ccc(C(=O)C(Sc2nnc(C)c(=O)[nH]2)c2ccc(OC)cc2)cc1 (stereo not shown)"
  Assigned class: "no"
- Compound: "COc1ccc(-c2nnnn2C(C)C)cc1"
  Assigned class: "yes"

INPUT: Is it the case that O=C(CSc1nc2ccccc2c(=O)n1CC1CCCO1)NCc1ccccc1 (stereo not shown) has hERG current change (%, negative = inhibition) at 10uM reaching or exceeding -10%?
OUTPUT: no

----------
target: human ether-à-go-go-related gene (hERG) potassium channel (human); assay: primary screen, population patch clamp on CHO cells stably expressing hERG; higher = less effect of the substance;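 further: peak tail current of the secondary pulse compared with the same well before compound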
The whole screen tested about 310,000 compounds, of which about 14,000 (4.5%) showed an effect of 50% or more. The effect is printed as a negative number. The sample as a whole holds a higher share of strong results than the screen did.
Measured metric: hERG current change (%, negative = inhibition) at 10uM (%)
All answers are understood in %, so give the number only.

Worked examples follow.
- Molecule: "CC(OC(=O)C1CCCCC1)C(=O)Nc1cccc([N+](=O)[O-])c1 (centres unmarked)"
  Test result: -4.48
- Molecule: "COc1ccc(S(=O)(=O)N2CCCC(C(=O)NCCCn3ccnc3)C2)cc1OC (centres unmarked)"
  Test result: 7.83

Please turn your attention to the following entry.
Value of hERG current change (%, negative = inhibition) at 10uM reported for the molecule O=C(NCc1ccncc1)C1CCCN(S(=O)(=O)c2ccc(Br)cc2)C1 (centres unmarked) is -77.5

----------
target: human ether-à-go-go-related gene (hERG) potassium channel (human, UniProt Q12809); assay: primary screen, population patch clamp on CHO cells stably expressing hERG; higher = less effect of the substance;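 further: peak tail current of the secondary pulse compared with the same well before compound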
The campaign covered roughly 310,000 compounds. About 14,000 (4.5%) showed an effect of 50% or more. Effects have a minus sign here. The list comes from a sample in which strong results are over-represented; it also holds close analogues and randomly drawn compounds.
Measured metric: hERG current change (%, negative = inhibition) at 10uM (%)
All answers are understood in %, so give the number only.

Worked examples follow.
- Compound: "Cc1ccc(C2(c3ccc(C)cc3)CC2C(=O)Nc2ccc([N+](=O)[O-])cc2O)cc1 (centres unmarked)"
  Test result: -2.42
- Compound: "Oc1c(Br)cc(Br)cc1CN1CCN(Cc2ccccc2)CC1"
  Test result: -3.14
- Compound: "Cc1nc2c(C(=O)N3CCN(c4ccccn4)CC3)cnn2c(C)c1Cc1cccc(Cl)c1"
  Test result: -43.4
- Compound: "OCCN1CCN(Cc2cc(Br)cc(Br)c2O)CC1"
  Test result: -60.8
- Compound: "COc1ccc(Br)cc1CN1CCN(CCO)CC1"
  Test result: -0.9
- Compound: "CCOC(=O)C1CCCN(S(=O)(=O)c2ccc3c4c(cccc24)C(=O)N3CC)C1 (centres unmarked)"
  Test result: -63.5
- Compound: "CCN1C(=O)c2cccc3c(S(=O)(=O)N4CCCC4C(=O)O)ccc1c23 (centres unmarked)"
  Test result: 13
- Compound: "CCC(O)(CC)C(=O)N/N=C/c1cc(Br)cc(Br)c1O"
  Test result: -1.02
- Compound: "NNC(=O)CCN1CCN(Cc2ccccc2)CC1"
  Test result: 17
- Compound: "Cc1ccc(C(=O)NC(C)c2ccc(-n3ccnc3)cc2)c(C)c1 (centres unmarked)"
  Test result: -57.4

// compound `CCN1CCN(Cc2cc(Br)cc(Br)c2O)CC1` , assay human ether-à-go-go-related gene (hERG) potassium channel (human, UniProt Q12809), hERG current change (%, negative = inhibition) at 10uM value: -50.6

// compound CC(NC(=O)c1cc(F)c(F)c(F)c1F)c1ccc(-n2ccnc2)cc1 (centres unmarked) , assay human ether-à-go-go-related gene (hERG) potassium channel (human, UniProt Q12809), hERG current change (%, negative = inhibition) at 10uM value: -65.2

// compound Cc1ccc(C(O)c2ccc(-n3ccnc3)cc2)cc1 (centres unmarked) , assay human ether-à-go-go-related gene (hERG) potassium channel (human, UniProt Q12809), hERG current change (%, negative = inhibition) at 10uM value: -1.74

// compound `Cc1cccc(-c2n[nH]c(=S)n2Cc2ccccc2)c1` , assay human ether-à-go-go-related gene (hERG) potassium channel (human, UniProt Q12809), hERG current change (%, negative = inhibition) at 10uM value: -2.87

// compound Cc1cc(N2C(=O)CC(N3CCN(c4ccc(C(=O)c5cccs5)cc4)CC3)C2=O)no1 (centres unmarked) , assay human ether-à-go-go-related gene (hERG) potassium channel (human, UniProt Q12809), hERG current change (%, negative = inhibition) at 10uM value: -37.3

// compound `Cl.c1ccc(CNc2nc3ccccc3n2CCN2CCOCC2)nc1` , assay human ether-à-go-go-related gene (hERG) potassium channel (human, UniProt Q12809), hERG current change (%, negative = inhibition) at 10uM value: -15.5

// compound `CCOc1ccc(CNc2nc3ccccc3n2C)cc1` , assay human ether-à-go-go-related gene (hERG) potassium channel (human, UniProt Q12809), hERG current change (%, negative = inhibition) at 10uM value: -31.4

From: paper PMC4336329
